Data provenance is patent US20060019241A1.

test system: enkephalin/endorphin transport system in SK—N—SH cells; assay: [^3H]deltorphin II uptake in SK—N—SH cells, effect of peptides and amino acids; type: cell-based, human; conditions: [^3H]deltorphin II 25 nM, NaCl, 30 minutes, compound 1 mM
Give Y when the value for Deltorphin II uptake is at least 2 pmol/30 min/mg protein. Give N when it is less.

Input line: Tell me whether Deltorphin II uptake is at least 2 pmol/30 min/mg protein here: `CC(=O)NCCCC[C@H](N)C(=O)O`
Output line: Y

Input line: Tell me whether Deltorphin II uptake is at least 2 pmol/30 min/mg protein here: `CC(=N)NCCCC[C@H](N)C(=O)O`
Output line: Y

Input line: Tell me whether Deltorphin II uptake is at least 2 pmol/30 min/mg protein here: `NCCCC(=O)O`
Output line: Y

Input line: Tell me whether Deltorphin II uptake is at least 2 pmol/30 min/mg protein here: `C[N+](C)(C)CCCC[C@H](N)C(=O)O`
Output line: Y

Input line: Tell me whether Deltorphin II uptake is at least 2 pmol/30 min/mg protein here: `COC(=O)[C@@H](N)CCCCN`
Output line: N

Input line: Tell me whether Deltorphin II uptake is at least 2 pmol/30 min/mg protein here: `NCCCCCCN`
Output line: Y

Input line: Tell me whether Deltorphin II uptake is at least 2 pmol/30 min/mg protein here: `NCCC[C@H](N)C(=O)O`
Output line: N

Input line: Tell me whether Deltorphin II uptake is at least 2 pmol/30 min/mg protein here: `COC(=O)[C@H](CCCCN)NC(C)=O`
Output line: Y
